- TESTED_TARGET: T1, human CD3 protein (human, UniProt P07766 23-126; P04234 22-105)
- T1 construct: ELISA coating protein; also called Human CD3D & CD3E Heterodimer Protein
- T1 sequence (P07766 23-126 limits assumed, chain 1 of 2): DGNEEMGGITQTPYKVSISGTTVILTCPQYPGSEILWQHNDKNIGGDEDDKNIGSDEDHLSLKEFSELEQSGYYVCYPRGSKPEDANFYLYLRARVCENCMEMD
- T1 sequence (P04234 22-105 limits assumed, chain 2 of 2): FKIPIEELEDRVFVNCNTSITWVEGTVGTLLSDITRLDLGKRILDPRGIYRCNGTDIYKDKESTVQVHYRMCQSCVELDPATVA
- ASSAY_SUMMARY: ELISA, plate-coated CD3;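 further: binding to plate-immobilized human CD3 protein, bound antibody detected with peroxidase-labelled anti-human IgG and TMB, read as absorbance at 450 nm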
MEASUREMENT_KIND: EC50 (ng/mL)
Quick reminder: number only, in ng/mL, skip the unit.

Example results:
BINDER	EC50 / ng/mL
Hu192A7B9-6 (antibody, V domains shown, humanized mAb) VH: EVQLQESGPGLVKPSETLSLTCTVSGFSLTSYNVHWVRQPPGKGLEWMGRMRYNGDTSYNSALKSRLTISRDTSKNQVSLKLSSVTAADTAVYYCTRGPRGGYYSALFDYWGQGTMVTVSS VL: DIQMTQSPSSLSASVGDRVTITCKASQNINRYLNWYQQKPGKAPKLLIYIANSLQTGVPSRFSGSGSGTDFTLTISSLQPEDFATYYCLQHNSWYTFGQGTKLEIK	8.59
Hu153A6B1-5 (antibody, V domains shown, humanized mAb) VH: EVQLQESGPGLVKPSETLSLTCTVSGFSISSYNIHWVRQPPGKGLEWMGRIRYNGDTSYNSALKSRLTISRDTSKNQVSLKLSSVTAADTAVYYCTRGPYGGSREPLFDYWGQGTMVTVSS VL: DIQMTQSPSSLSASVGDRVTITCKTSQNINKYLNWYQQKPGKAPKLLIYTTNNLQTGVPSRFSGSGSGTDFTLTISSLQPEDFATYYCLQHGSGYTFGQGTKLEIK	3.23

Continue with the next binder.
Reported EC50 for Hu153A6B1-9 (antibody, V domains shown, humanized mAb) VH: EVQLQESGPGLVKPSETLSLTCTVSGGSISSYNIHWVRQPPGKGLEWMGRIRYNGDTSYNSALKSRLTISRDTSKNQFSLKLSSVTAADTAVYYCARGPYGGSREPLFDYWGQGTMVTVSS VL: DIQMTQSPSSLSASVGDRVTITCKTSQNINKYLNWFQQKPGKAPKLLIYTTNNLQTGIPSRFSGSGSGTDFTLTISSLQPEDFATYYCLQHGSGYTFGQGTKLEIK : what is it?
3.35
